biological target: CDK12/CycK (Homo sapiens); experiment: CDK12/CycK high ATP kinase assay (TR-FRET, 2 mM ATP); conditions: 2 mM ATP (high ATP); median; read-out: CDK12/CyclinK, 2 mM ATP (high ATP), IC50-[mol/l] (median)
Sequence (Q9NYV4 with tags, fused parts or gaps, one chain of several): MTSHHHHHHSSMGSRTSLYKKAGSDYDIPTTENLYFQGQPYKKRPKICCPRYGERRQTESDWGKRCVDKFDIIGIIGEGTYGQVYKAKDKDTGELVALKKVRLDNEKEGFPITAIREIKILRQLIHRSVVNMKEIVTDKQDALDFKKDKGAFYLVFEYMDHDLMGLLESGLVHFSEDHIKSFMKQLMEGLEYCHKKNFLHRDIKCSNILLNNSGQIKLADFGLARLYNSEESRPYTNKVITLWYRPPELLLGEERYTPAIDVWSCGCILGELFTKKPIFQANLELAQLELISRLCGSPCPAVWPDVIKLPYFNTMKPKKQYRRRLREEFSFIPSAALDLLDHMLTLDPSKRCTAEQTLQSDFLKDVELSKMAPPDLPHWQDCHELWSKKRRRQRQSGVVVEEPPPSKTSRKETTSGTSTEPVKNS
measured quantity: IC50 (µM)
Write the answer as a number in µM, unit excluded.

Prompt line: Respond only with IC50 recorded for Cc1cc2nc(CNc3nc(N(C)CC(C)(C)O)nc4c(C5CC5)cnn34)[nH]c2cc1C [Example 321]
Response line: 0.416

Prompt line: Respond only with IC50 recorded for Fc1ccc2[nH]c(CNc3nc(N4CCOCC4)nc4c(C(F)(F)F)cnn34)nc2c1F [Example 426]
Response line: 0.0239

Prompt line: Respond only with IC50 recorded for FC(F)(F)c1cnn2c(NCc3nc4ccccc4[nH]3)nc(N3CCOCC3)nc12 [Example 241]
Response line: 0.805

Prompt line: Respond only with IC50 recorded for C[C@H]1CN(C)CCN1c1nc(NCc2nc3c(F)cccc3[nH]2)n2ncc(C(F)(F)F)c2n1 [Example 388]
Response line: 6.84

Prompt line: Respond only with IC50 recorded for Fc1c(Cl)ccc2[nH]c(CNc3nc(N4CC5CCC(C4)N5)nc4c(Br)cnn34)nc12 [Example 380]
Response line: 1.02

Prompt line: Respond only with IC50 recorded for OCC1CCN1c1nc(NCc2nc3ccccc3[nH]2)n2ncc(Br)c2n1 (centres unmarked) [Example 147]
Response line: 4.97

Prompt line: Respond only with IC50 recorded for Brc1cnn2c(NCc3nc4ccccc4[nH]3)nc(N3CCOCC3C3CC3)nc12 (centres unmarked) [Example 117]
Response line: 4.82

Prompt line: Respond only with IC50 recorded for O=C(O)C(F)(F)F.c1ccc2[nH]c(CNc3nc(N4CCOCC4)nc4c(-c5cncs5)cnn34)nc2c1 [Example 441]
Response line: 4.18

Prompt line: Respond only with IC50 recorded for CC(C)CNc1nc(NCc2nc3ccccc3[nH]2)n2ncc(Br)c2n1 [Example 285]
Response line: 6.44

Prompt line: Respond only with IC50 recorded for FC(F)(F)c1ccc2[nH]c(CNc3nc(N4CC5CCC(C4)N5)nc4c(Br)cnn34)nc2c1 [Example 354]
Response line: 3.74

Prompt line: Respond only with IC50 recorded for Clc1ccc(-c2cnc(CNc3nc(N4CCOCC4)nc4c(Br)cnn34)[nH]2)cc1 [Example 72]
Response line: 0.547

Prompt line: Respond only with IC50 recorded for CC1(O)CCN(c2nc(NCc3nc4ccccc4[nH]3)n3ncc(Br)c3n2)C1 (centres unmarked) [Example 225]
Response line: 10.3

###

Kindly state DC50 for each of the entries shown.
Target: CYCLIN K (nuclear staining in CAL-120 cells) (Homo sapiens, UniProt O75909)
Construct: endogenous in cells; host or cells: CAL-120 human breast cancer cells (DSMZ ACC 459)
Sequence (O75909 whole entry): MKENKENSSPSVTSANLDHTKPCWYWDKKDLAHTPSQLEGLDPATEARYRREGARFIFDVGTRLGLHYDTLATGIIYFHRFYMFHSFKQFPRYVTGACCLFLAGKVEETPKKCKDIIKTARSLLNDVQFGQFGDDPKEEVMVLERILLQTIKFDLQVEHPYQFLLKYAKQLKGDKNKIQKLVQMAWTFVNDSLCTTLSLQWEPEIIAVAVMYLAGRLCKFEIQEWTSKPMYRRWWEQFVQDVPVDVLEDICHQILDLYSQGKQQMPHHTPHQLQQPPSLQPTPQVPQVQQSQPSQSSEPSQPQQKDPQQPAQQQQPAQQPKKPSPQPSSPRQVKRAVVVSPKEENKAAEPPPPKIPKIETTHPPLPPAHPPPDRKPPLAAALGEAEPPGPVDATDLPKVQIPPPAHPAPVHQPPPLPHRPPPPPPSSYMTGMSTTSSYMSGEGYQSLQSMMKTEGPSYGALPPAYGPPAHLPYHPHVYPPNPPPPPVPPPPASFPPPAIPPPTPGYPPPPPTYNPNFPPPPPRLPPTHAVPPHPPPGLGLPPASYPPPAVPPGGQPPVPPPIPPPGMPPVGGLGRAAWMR
Sequence (Q9NYV4 whole entry partner): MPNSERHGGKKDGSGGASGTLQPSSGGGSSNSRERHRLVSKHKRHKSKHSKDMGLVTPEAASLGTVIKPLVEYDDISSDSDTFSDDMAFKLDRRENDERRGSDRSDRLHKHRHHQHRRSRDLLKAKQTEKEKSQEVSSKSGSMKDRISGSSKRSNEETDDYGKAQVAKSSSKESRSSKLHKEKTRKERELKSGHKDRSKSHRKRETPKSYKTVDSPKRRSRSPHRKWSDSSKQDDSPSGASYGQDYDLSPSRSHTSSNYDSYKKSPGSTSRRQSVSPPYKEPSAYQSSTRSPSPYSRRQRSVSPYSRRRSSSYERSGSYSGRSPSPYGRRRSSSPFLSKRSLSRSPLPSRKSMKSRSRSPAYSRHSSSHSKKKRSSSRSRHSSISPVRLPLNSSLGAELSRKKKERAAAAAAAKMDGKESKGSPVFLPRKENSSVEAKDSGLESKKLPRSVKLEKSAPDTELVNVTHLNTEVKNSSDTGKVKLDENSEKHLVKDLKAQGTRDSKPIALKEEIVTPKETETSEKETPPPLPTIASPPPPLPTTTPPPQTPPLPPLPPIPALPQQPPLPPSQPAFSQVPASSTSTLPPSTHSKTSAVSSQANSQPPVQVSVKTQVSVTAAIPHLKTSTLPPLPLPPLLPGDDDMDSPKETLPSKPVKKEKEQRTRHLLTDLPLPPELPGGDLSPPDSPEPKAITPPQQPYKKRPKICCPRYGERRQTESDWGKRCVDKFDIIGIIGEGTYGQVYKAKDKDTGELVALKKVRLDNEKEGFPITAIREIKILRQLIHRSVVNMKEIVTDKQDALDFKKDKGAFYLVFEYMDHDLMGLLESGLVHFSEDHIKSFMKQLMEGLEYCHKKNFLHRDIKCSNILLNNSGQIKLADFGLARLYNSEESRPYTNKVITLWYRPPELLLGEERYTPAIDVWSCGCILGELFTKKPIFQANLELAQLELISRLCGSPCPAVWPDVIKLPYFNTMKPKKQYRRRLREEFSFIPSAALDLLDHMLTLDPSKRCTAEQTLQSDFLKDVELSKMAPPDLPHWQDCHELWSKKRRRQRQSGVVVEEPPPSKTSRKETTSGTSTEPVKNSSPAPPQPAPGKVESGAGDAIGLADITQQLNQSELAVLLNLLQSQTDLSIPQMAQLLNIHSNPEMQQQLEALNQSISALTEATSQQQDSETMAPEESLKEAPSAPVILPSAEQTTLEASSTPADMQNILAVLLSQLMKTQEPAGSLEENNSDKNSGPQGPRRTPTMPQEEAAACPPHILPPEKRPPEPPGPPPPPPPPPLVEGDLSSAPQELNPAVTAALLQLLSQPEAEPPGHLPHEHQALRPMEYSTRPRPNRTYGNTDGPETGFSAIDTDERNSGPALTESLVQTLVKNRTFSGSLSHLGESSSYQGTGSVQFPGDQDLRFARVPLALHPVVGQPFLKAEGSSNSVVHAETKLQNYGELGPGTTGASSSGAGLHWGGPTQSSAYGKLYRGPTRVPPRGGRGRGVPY
Assay: CYCLIN K nuclear protein level: immunofluorescence high content analysis (CAL-120)
Type: cell-based
Details: 24 h, 50% reduction of nuclear CCNK staining intensity, median, read-out: CYCLIN K degradation IF, DC50-[mol/l] (median)
Experimental: 8. CYCLIN K nuclear protein level: immunofluorescence High Content Analysis CAL-120 human breast cancer cells (DSMZ ACC 459) are seeded in 1536-well microtiter plates (800 cells per well) containing 50 nanoL of compounds in Dose-Response. Control wells received DMSO or Example 4. […] Nuclear and cytoplasmic intensity as well as the nuclear/cytoplasmic intensity ratio is determined by automated image analysis using custom generated scripts (MetaXpress). […]
Write down the value, and be sure its unit follows.

Prompt line: Look up CYCLIN K (nuclear staining in CAL-120 cells) (Homo sapiens, UniProt O75909) data: DC50 of Cc1cc2nc(CNc3nc(N(C)CC(C)(C)O)nc4c(Br)cnn34)[nH]c2cc1C , then report it.
Response line: 0.0978 nM

Prompt line: Look up CYCLIN K (nuclear staining in CAL-120 cells) (Homo sapiens, UniProt O75909) data: DC50 of Brc1cnn2c(NCc3nnc(-c4ccccc4)[nH]3)nc(N3CCOCC3)nc12 , then report it.
Response line: 1.67 nM

Prompt line: Look up CYCLIN K (nuclear staining in CAL-120 cells) (Homo sapiens, UniProt O75909) data: DC50 of C[C@@H]1CN(c2nc(NCc3nnc(-c4ccccc4)[nH]3)n3ncc(Br)c3n2)C[C@H](C)O1 , then report it.
Response line: 1.61 nM

Prompt line: Look up CYCLIN K (nuclear staining in CAL-120 cells) (Homo sapiens, UniProt O75909) data: DC50 of CN1CCN(c2nc(NCc3nc4c(F)cccc4[nH]3)n3ncc(C4CC4)c3n2)CC1 , then report it.
Response line: 0.155 nM
